# System: T-47D breast
# experiment: NCI-60 one-dose screen, 48 h
# experimental.conditions: 10 µM unless noted
This is part of a sample that, as a whole, favours compounds with a hit. Of some 83,000 tested, about 20% had one in any assay. Active and inactive are the calls of the source. The calls were made as follows: active = growth percent below 10; inactive = the rest.
Classes used: active, inactive

compound: O[N+]1=CC=CCC1=S.On1ccccc1=S.[Zn]
class.assignment: active
--
compound: CC(=O)Nc1ccc(C(=O)COc2cccc(/C=C3\CCc4ccccc4C3=O)c2)cc1
class.assignment: inactive
--
compound: C/C(=C\CCc1ccsc1)CC/C=C(\C)CCCN1CCSCC1
class.assignment: inactive
--
compound: COc1cc(-c2n[nH]nc2-c2ccccn2)cc(OC)c1OC
class.assignment: inactive
--
compound: O=C(Nc1ccccc1OC(=O)c1ccccc1)c1ccccc1
class.assignment: inactive
--
compound: COc1ccc(/C=C2/SC(=Nc3c(C)nn(-c4ccccc4)c3N)NC2=O)cc1
class.assignment: inactive
--
compound: Nc1ccc(N=Nc2ccccc2)cc1[N+](=O)[O-]
class.assignment: inactive
--
compound: O=C1NC(=O)/C(=C\c2ccco2)S1
class.assignment: inactive
--
compound: COc1ccc(/C=C/C(=O)c2cccc(NS(C)(=O)=O)c2)cc1
class.assignment: inactive
--
compound: COc1ccc(NS(=O)(=O)N2CCCCC2)cc1
class.assignment: inactive
--
compound: O=C(NCCNC(=O)Oc1cccc2ccccc12)Oc1cccc2ccccc12
class.assignment: inactive
--
compound: CCN(Cc1cccc(S(=O)(=O)[O-])c1)c1ccc(C(=C2C=CC(=[N+](CC)Cc3cccc(S(=O)(=O)O)c3)C=C2)c2ccccc2S(=O)(=O)O)cc1
class.assignment: inactive
--
compound: COc1ccc(-c2ccc(O)c(C(=O)/C=C/c3cc(OC)c(OC)c(OC)c3)c2)cc1
class.assignment: inactive
--
compound: CNCCCn1c2c(c3ccc(F)cc3c1=O)C(=O)c1cc(OC)cnc1-2
class.assignment: active
--
compound: Cc1ccc(-c2c3c(N)c4c(nc3nc3c2c(C)nn3-c2ccccc2)CCC4)cc1
class.assignment: inactive
--
compound: CC[n+]1c(/C=C/c2ccc(N3CCCC3)cc2)cccc1/C=C/c1ccc(N2CCCC2)cc1
class.assignment: active
--
compound: Cc1ccc(/C=C(/C#N)n2nnc3ncccc32)cc1
class.assignment: active
--
compound: CCCCCCCCN(CCO)CCCCCCCC
class.assignment: inactive
--
compound: CC(C)C[C@H](NC(=O)/C=C/Cn1ccc2ccccc2c1=O)B(O)O
class.assignment: inactive
--
compound: CCCCN1c2nc3ccccc3cc2Sc2cc3ccccc3nc21
class.assignment: inactive
--
compound: Oc1c(N=Nc2nn[nH]n2)ccc2ccccc12
class.assignment: inactive
--
compound: CN(C)CCCNc1nn2c(=O)c3ccccc3nc2c2ccccc12
class.assignment: inactive
--
compound: COc1ccccc1NC(=O)c1sc2nc3c(cc2c1N)C(=O)CCC3
class.assignment: inactive
--
compound: COc1cccc(N2CCN(c3cccc(C)n3)CC2)c1
class.assignment: inactive
--
compound: Cc1ccc2nc(SCC(=O)Nc3ccc(-c4nc5ccccc5s4)c(Cl)c3)[nH]c2c1
class.assignment: inactive
--
compound: O=C(Nc1nn2c(-c3cc(C(F)(F)F)cc(C(F)(F)F)c3)nnc2s1)C1CCCC1
class.assignment: inactive
--
compound: Cc1[nH]ccc2cc3nc4ccccc4c3cc12
class.assignment: inactive
--
compound: O=C(N/N=C/c1cccc(O)c1)c1ccc(C(F)(F)F)nc1Nc1cccc(C(F)(F)F)c1
class.assignment: active
--
compound: COc1cc(-c2nc3sc4c(c3c(=O)[nH]2)CCCCCC4)cc(OC)c1OC
class.assignment: inactive
--
compound: CC[C@@H](C)/C=C(C)/C=C/C(=O)c1c(O)c(-c2ccc(O)cc2)cn(OC2CC(=O)CCC(C)OC(=O)CC2O)c1=O (some centres undefined)
class.assignment: inactive
--
compound: Nc1ccc(Oc2c(F)c(F)c(Oc3ccc(N)cc3)c(F)c2F)cc1
class.assignment: inactive
--
compound: COc1ccc(/C=C2\CCc3ccccc3C2=O)cc1
class.assignment: inactive
--
compound: CCCCCCCC[Si](OCC)(OCC)OCC
class.assignment: inactive
--
compound: COc1ccc2nc(NC(=O)CN3CCn4c(nnc4C(F)(F)F)C3)sc2c1
class.assignment: inactive
--
compound: CC(C)Sc1nc(-c2ccc(Br)cc2)c(C#N)c(N2CCCCC2)n1
class.assignment: inactive
--
compound: COc1cccc(CCN2C(=O)CCC3=C2CCC3=O)c1
class.assignment: inactive
--
compound: N#CSCC1CC(O)(c2ccccc2)C(c2ccccc2)C(c2ccc(Cl)cc2)O1 (centres undefined)
class.assignment: active
--
compound: CC(=O)c1ccc(NS(=O)(=O)c2ccc([N+](=O)[O-])cc2)cc1
class.assignment: inactive
--
compound: O=C(c1ccccc1)c1ccc(Oc2ccc([N+](=O)[O-])cc2[N+](=O)[O-])cc1
class.assignment: inactive
--
compound: Fc1ccc(-c2nn3c(-c4cc(C(F)(F)F)cc(C(F)(F)F)c4)nnc3s2)cc1
class.assignment: inactive
--
compound: O=C1c2cccc3c([N+](=O)[O-])ccc(c23)C(=O)N1CCCCl
class.assignment: active
--
compound: CC1c2ccccc2-c2ccccc2N1C (centres undefined)
class.assignment: inactive
--
compound: O=c1[nH]c(SCc2ccccc2)nc2nc(Nc3ccc(NC(=S)Nc4ccccc4)cc3)nc(-c3ccc(O)cc3O)c12
class.assignment: inactive
--
compound: COc1ccc2c3c(ccc2c1)C(=O)/C(=C\O)CC3
class.assignment: inactive
